target_or_test_system: human LXRα (Homo sapiens, UniProt Q13133)
experiment_summary: cell-based
assay_context: agonist mode, β-galactosidase activity, n=3
reported_endpoint: pEC50
One number for each entry, as −log10 of the molar value.

Record summary for `O=[N+]([O-])c1ccc(O)cc1` : reported pEC50 = 4.85

* * *

target_or_test_system: human LXRβ (Homo sapiens, UniProt P55055)
Sequence (P55055 219-460): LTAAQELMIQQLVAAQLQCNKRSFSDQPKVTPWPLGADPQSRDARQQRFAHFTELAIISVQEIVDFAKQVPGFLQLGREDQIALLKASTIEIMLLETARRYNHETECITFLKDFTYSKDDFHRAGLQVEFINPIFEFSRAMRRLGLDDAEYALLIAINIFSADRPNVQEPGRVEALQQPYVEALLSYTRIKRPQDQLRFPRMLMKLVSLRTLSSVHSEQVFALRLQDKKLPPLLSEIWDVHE
reported_endpoint: IC50 (nM)
Give bare numbers, in nM.

Look over these answered cases.
Record summary for O=P(Oc1ccccc1)(Oc1ccccc1)Oc1ccccc1 [TPHP, triphenyl phosphate] : reported IC50 = 762

Record summary for CCCCC(CC)COP(=O)(Oc1ccccc1)Oc1ccccc1 (stereo not drawn) [EHDPP, 2-ethylhexyl diphenyl phosphate] : reported IC50 = 2170

Now take the following compound into account.
Record summary for CCOC(=O)c1ccc(CN(Cc2ccc(-c3cccc(S(C)(=O)=O)c3)cc2)S(=O)(=O)c2c(C)cc(C)cc2C)o1 [SR9238, reference compound] : reported IC50 = 446

* * *

target_or_test_system: human LXRα (Homo sapiens, UniProt Q13133)
Construct: expressed in transfected cells; host or cells: Saccharomyces cerevisiae Y187
Sequence (Q13133 205-447): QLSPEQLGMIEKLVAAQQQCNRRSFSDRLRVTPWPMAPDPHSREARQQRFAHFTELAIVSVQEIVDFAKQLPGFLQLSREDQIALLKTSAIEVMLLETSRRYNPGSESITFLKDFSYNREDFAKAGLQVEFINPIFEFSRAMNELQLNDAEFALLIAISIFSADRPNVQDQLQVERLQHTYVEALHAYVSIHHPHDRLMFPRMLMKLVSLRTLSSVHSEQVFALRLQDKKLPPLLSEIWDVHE
experiment_summary: cell-based
assay_context: read-out: IC50 for LXRα (antagonist activity)
reported_endpoint: pIC50
Numbers only, as −log10 of the molar value.

Record summary for CCOC(=O)c1ccc(CN(Cc2ccc(-c3cccc(S(C)(=O)=O)c3)cc2)S(=O)(=O)c2c(C)cc(C)cc2C)o1 [SR9238, reference compound] : reported pIC50 = 6.08
